Tested on: MFH-ino (Other Solid Carcinomas);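 further: after 72 h of two-drug dosing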
PROTOCOL_TEXT: Bliss excess, mean over the matrix (fraction); higher = more synergy
MEASURE_NAME: Bliss excess
Field format: numeric only.

Can you share its Bliss excess? I mean this compound: Cn1cnc2c(F)c(Nc3ccc(Br)cc3Cl)c(C(=O)NOCCO)cc21 [Selumetinib] + CCN(CCO)CCCOc1ccc2c(Nc3cc(CC(=O)Nc4cccc(F)c4)[nH]n3)ncnc2c1 [AZD2811] (first compound max 10 µM, 7x7, partner max 1 µM)
-0.045

Can you handle O=C(c1cc(Cc2n[nH]c(=O)c3ccccc23)ccc1F)N1CCN(C(=O)C2CC2)CC1 [Olaparib] + CC1(C)CCC(CN2CCN(c3ccc(C(=O)NS(=O)(=O)c4ccc(NCC5CCOCC5)c([N+](=O)[O-])c4)c(Oc4cnc5[nH]ccc5c4)c3)CC2)=C(c2ccc(Cl)cc2)C1 [Venetoclax] (first compound max 10 µM, 7x7, partner max 1 µM) next?
-0.0622

Can you handle CN(CCO)CC[C@H](CSc1ccccc1)Nc1ccc(S(=O)(=O)NC(=O)c2ccc(N3CCC([C@@H](O)c4ccccc4-c4ccc(Cl)cc4)CC3)cc2)cc1S(=O)(=O)C(F)(F)F [AZD4320] + Cc1cc2ncnn2cc1Nc1ncc2c(n1)n(C1CCOCC1)c(=O)n2C [AZD7648] (first compound max 1 µM, 7x7, partner max 10 µM) next?
-0.0545

Can you handle N#Cc1cnc(Nc2cc(NC[C@H]3CNCCO3)c(C(F)(F)F)cn2)cn1 [SRA737] + O=c1[nH]cc(F)c(=O)[nH]1 [5-Fluorouracil] (first compound max 10 µM, 7x7, partner max 20 µM) next?
0.0373
